Source of measurements: patent US7927624B2

Assay: physchem
Conditions: water
value type: solubility (mg/mL)

smiles	test result
CCCN(CCC)CCc1cccc2c1CC(=O)N2	133
